# testDescription: Pharmacokinetics after single oral dose in BALB/c mice
# Format: in vivo
# conditions: male, BALB/c, mouse, plasma, po, 25 mg/kg, t1/2 (Elimination half life), BALB/c mice, single dose 25 mg/kg
measurementKind: half-life (h)
Answer with a number only, understood to be in h.

q: For the compound shown here, O=[N+]([O-])c1ccc(Cn2cc(Cn3c4ccccc4c4nc5ccccc5nc43)nn2)cc1 [PK2] , give the reported half-life.
a: 4.8
